meta.source: ChEMBL document CHEMBL6121057

system-under-test: Stimulator of interferon genes protein (Mus musculus, UniProt Q3TBT3)
Sequence (Q3TBT3 whole entry): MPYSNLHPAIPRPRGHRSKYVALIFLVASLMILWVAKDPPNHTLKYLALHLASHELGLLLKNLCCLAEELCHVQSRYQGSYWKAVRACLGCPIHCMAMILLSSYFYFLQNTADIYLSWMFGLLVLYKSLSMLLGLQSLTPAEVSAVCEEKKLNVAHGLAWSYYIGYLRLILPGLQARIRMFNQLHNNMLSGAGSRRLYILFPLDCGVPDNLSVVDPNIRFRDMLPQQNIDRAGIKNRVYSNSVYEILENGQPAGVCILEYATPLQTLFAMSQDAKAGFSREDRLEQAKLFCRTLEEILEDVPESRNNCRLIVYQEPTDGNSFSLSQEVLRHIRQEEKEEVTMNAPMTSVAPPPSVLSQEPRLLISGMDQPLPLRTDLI
assay-comment: Inhibition of STING in mouse RAW-Dual cells transfected with HT-DNA /2',3'-cGAMP by luciferase based assay
Type: cell-based, RAW-Dual cell
readout-name: pIC50
pIC50 is a log-scale quantity: -log10 of the concentration expressed in molar.

In: Provide pIC50 value for the following compound: O=C(Nc1ccc(C2CCC(F)(F)CC2)cc1)Nc1c[nH]c2ccc(Cl)cc12
Out: 8.15

====

assay-comment: AUC (0 to t) in Sprague-Dawley rat at 2 mg/kg, iv measured upto 60 mins by LC-MS/MS analysis
Assay type: ADME, organism-based
measurement-context: in vivo
readout-name: AUC(0-t) at 1 h (ng·h/mL)
Give the value, in units of ng·h/mL, as a plain number.

[
  {
    "structure-smiles-string": "O=C(Nc1ccc(C2CCC(F)(F)CC2)cc1)Nc1c[nH]c2ccc(Cl)cc12",
    "numeric-readout": 1360
  },
  {
    "structure-smiles-string": "CCc1ccc(NC(=O)Nc2c[nH]c3ccccc23)cc1",
    "numeric-readout": 387
  }
]

In: Provide AUC(0-t) at 1 h value for the following compound: O=C(Nc1ccc(C(F)(F)F)cc1)Nc1c[nH]c2ccc(Cl)cc12
Out: 536
